# System: K. pneu.
# test_name: Susceptibility testing (MIC, CLSI microdilution)
# Format: cell-based, Klebsiella pneumoniae
# conditions_used: 20 h at 35° C., unit assumed
Reported MIC K. pneu. values for a set of molecules
Response body: numeric value in µg/mL, unit text excluded.

molecule="CCCc1ccc(-c2ccc(C(=O)NC(CF)C(=O)NO)cc2)cc1 (racemic)" study_target="K. pneu." unit_tag=µg/mL numeric_value=8
molecule="CCCc1ccc(-c2ccc(C(=O)NC(C(=O)NO)c3cccs3)cc2)cc1 (centres unmarked)" study_target="K. pneu." unit_tag=µg/mL numeric_value=8

// returns reported MIC K. pneu. for input `COc1ccc(C(=O)N2CC[C@@H](O)[C@H]2C(=O)NO)cc1SC(F)(F)F`
64

Here is the next molecule: `CCCc1ccc(-c2ccc(C(=O)N3CCS[C@H]3C(=O)NO)cc2)cc1`
32

====

# Tested on: H. influen.
# test_name: Susceptibility testing (MIC, CLSI microdilution)
# Assay type: cell-based, Haemophilus influenzae
# conditions_used: 20 h at 35° C., unit assumed
Reported MIC H. influen. values for a set of compounds

Example entries and their recorded answers appear below.
compound="CCCc1ccc(-c2ccc(C(=O)NC(CS(C)(=O)=O)C(=O)NO)cc2)cc1 (stereo in doubt) [Compound 29]" result="> 64 µg/mL"
compound="CCCc1ccc(-c2ccc(C(=O)N3CCS(=O)(=O)[C@@H]3C(=O)NO)cc2)cc1 [Compound 19]" result="32 µg/mL"
compound="O=C(NC(C(=O)NO)C(F)(F)F)c1ccc(-c2cc(F)cc(F)c2)cc1 (racemic) [Compound 23]" result="16 µg/mL"
compound="CCCc1ccc(-c2ccc(C(=O)N[C@@H](CCSC)C(=O)NO)cc2)cc1 [Compound 26]" result="> 64 µg/mL"
compound="CCOc1ccc(-c2ccc(C(=O)N3CCS(=O)(=O)[C@H]3C(=O)NO)cc2)cc1 [Compound 33]" result="16 µg/mL"
compound="CCCc1ccc(-c2ccc(C(=O)N3C[C@@](O)(COC)C[C@H]3C(=O)NO)cc2)cc1 [Compound 9]" result="> 64 µg/mL"
compound="CCCc1ccc(-c2ccc(C(=O)N3CCS[C@@H]3C(=O)NO)cc2)cc1 [Compound 18]" result="64 µg/mL"

Now look at this entry.
// returns reported MIC H. influen. for input CCCc1ccc(-c2ccc(C(=O)N3CC[C@H](F)[C@H]3C(=O)NO)cc2)cc1 [Compound 6]
> 64 µg/mL

====

# Test system: H. influen.
# test_name: Susceptibility testing (MIC, CLSI microdilution)
# Type: cell-based, Haemophilus influenzae
# conditions_used: 20 h at 35° C., unit assumed
metric_name: MIC H. influen. (µg/mL)
Response body: numeric value in µg/mL, unit text excluded.

compound="O=C(NC(C(=O)NO)C(F)(F)F)c1ccc(-c2ccc(F)cc2)cc1 (racemic)" unit_tag=µg/mL numeric_value=4

Now look at this entry.
// returns reported MIC H. influen. for input CCCc1ccc(-c2ccc(C(=O)NC(CF)C(=O)NO)cc2)cc1 (racemic)
8

====

# study_target: P. ae LpxC enzyme (Pseudomonas aeruginosa, UniProt P47205)
# Sequence (P47205 whole entry): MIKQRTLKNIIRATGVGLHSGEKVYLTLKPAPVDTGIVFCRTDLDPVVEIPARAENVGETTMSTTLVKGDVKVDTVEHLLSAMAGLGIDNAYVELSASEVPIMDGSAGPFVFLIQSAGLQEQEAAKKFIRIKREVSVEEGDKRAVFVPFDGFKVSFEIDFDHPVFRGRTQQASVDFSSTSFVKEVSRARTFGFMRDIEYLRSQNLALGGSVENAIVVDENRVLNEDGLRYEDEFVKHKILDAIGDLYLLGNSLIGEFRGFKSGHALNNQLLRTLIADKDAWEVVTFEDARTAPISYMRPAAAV
# test_name: Enzyme inhibition testing (fluorescamine assay)
# Format: biochemical
# conditions_used: @0.1 μg/ml; read-out: ENZYME (percent inhibition)
# Experimental: Compounds were tested based on a published method (Wang W., 2001, Anal Biochem, 290, 338-46) with modifications. […] P. ae LpxC enzyme dilution in the assay buffer is added to the compound in plate and pre-incubated with the compound at room temperature for 10 min. […] 100 μl of this filtrate is transferred to a low fluorescence clear-bottom 96-well plate (Corning) and the fluorescence is detected at ex360 nm and em465 nm on a Tecan fluorescence plate reader. […]
Is inhibition at 0.1 µg/mL at least 20%? Then Satisfied. If not, Not satisfied.

Some solved cases for reference:
compound="CCCc1ccc(-c2ccc(C(=O)NC(CSC)C(=O)NO)cc2)cc1 (stereo in doubt)" study_target="P. ae LpxC enzyme (Pseudomonas aeruginosa, UniProt P47205)" assigned_class="Not satisfied"
compound="CCOc1ccc(-c2ccc(C(=O)NC(C(=O)NO)C(F)(F)F)cc2)cc1 (racemic)" study_target="P. ae LpxC enzyme (Pseudomonas aeruginosa, UniProt P47205)" assigned_class="Not satisfied"
compound="O=C(NC(C(=O)NO)C(F)(F)F)c1ccc(-c2cc(F)cc(F)c2)cc1 (racemic)" study_target="P. ae LpxC enzyme (Pseudomonas aeruginosa, UniProt P47205)" assigned_class=Satisfied
compound=O=C(NO)[C@H]1N(C(=O)c2ccc(-c3ccc(F)cc3)cc2)CCS1(=O)=O study_target="P. ae LpxC enzyme (Pseudomonas aeruginosa, UniProt P47205)" assigned_class=Satisfied
compound=CCCc1ccc(-c2ccc(C(=O)N3CCS(=O)(=O)[C@@H]3C(=O)NO)cc2)cc1 study_target="P. ae LpxC enzyme (Pseudomonas aeruginosa, UniProt P47205)" assigned_class="Not satisfied"

# bool: inhibition at 0.1 µg/mL of CCCc1ccc(-c2ccc(C(=O)NC(CS(C)(=O)=O)C(=O)NO)cc2)cc1 (stereo in doubt) >= 20%
Satisfied

Here is the next compound: `O=C(NO)[C@H]1N(C(=O)c2ccc(Oc3ccccc3)cc2)CCS1(=O)=O`
Satisfied

Here is the next compound: `O=C(NO)[C@H]1N(C(=O)c2ccc(-c3ccc(C(F)(F)F)cc3)cc2)CCS1(=O)=O`
Satisfied
